- Measurement Target: HLA-DR15 (DRB1*1501) (Homo sapiens, UniProt P01903+P01911)
- Construct: made in house; host or cells: E. coli
- Procedure Summary: HLA-DR folding assay (LOCI/AlphaScreen) peptide binding
- Assay Conditions: axis "Peptide (nM)", LOCI, 48 h at 18 °C, L243 acceptor beads, five-fold titrations, one representative experiment of two shown, read-out: average Ko
No end group written: not given here.
Recorded Endpoint: Kd (nM)
Use nM as the unit, but write only the number.

Challenge: Recorded Kd for LLGDFFRKSKEKIGK [P1] , please?
Response given: 700
